Entries and their MFC values follow.
Test system: Candida albicans
experiment summary: Antifungal activity against Candida albicans CAI4
Assay type: functional

Would you please look over these solved cases?
smiles input: O=c1c(-c2ccccc2)nc(Cl)c(CCl)n1-c1ccccc1
assayed target: Candida albicans
reported: > 100 µg/mL
--
smiles input: Cc1c(Cl)nc(Cl)c(=O)n1-c1ccccc1
assayed target: Candida albicans
reported: > 100 µg/mL

Moving on to the next molecule.
Tell me measured MFC for Cc1ccccc1-c1c(Cl)nc(Cl)c(=O)n1-c1ccccc1 please.
> 100 µg/mL

---

Entries and their MFC values follow.
System: Candida albicans
experiment summary: Antifungal activity against Candida albicans CAI4
Format: functional
All answers are understood in µg/mL, so give the number only.

Would you please look over these solved cases?
smiles input: O=c1c(Cl)nc(Cl)cn1Cc1ccccc1
MFC / µg/mL: 50

smiles input: COc1ccc(-n2cc(Cl)nc(Cl)c2=O)cc1
MFC / µg/mL: 10

smiles input: O=c1c(Cl)nc(Cl)cn1CCc1ccccc1
MFC / µg/mL: 50

Tell me measured MFC for O=c1c(Cl)nc(Cl)c(CBr)n1-c1ccccc1 please.
5

Tell me measured MFC for O=c1c(Cl)nc(Cl)cn1CC1CCCCC1 please.
100

Tell me measured MFC for COc1ccc(Cn2cc(Cl)nc(Cl)c2=O)cc1 please.
50

Tell me measured MFC for O=c1c(Cl)nc(Cl)cn1-c1ccccc1 please.
10

Tell me measured MFC for O=c1c(Cl)nc(Cl)c(CCl)n1-c1ccccc1 please.
5

---

Tested on: Candida albicans
experiment summary: Antifungal activity against Candida albicans CAI4
Assay type: functional
Entries and their MFC values follow.

smiles input: COc1ccccc1Cn1c(Cc2ccccc2)c(Cl)nc(Cl)c1=O
MFC: > 100 µg/mL

smiles input: COc1cccc(-c2c(Cl)nc(Cl)c(=O)n2C)c1
MFC: > 100 µg/mL

smiles input: COc1ccccc1-c1c(Cl)nc(Cl)c(=O)n1-c1ccccc1
MFC: > 100 µg/mL

smiles input: COc1ccc(-c2c(Cl)nc(Cl)c(=O)n2-c2ccccc2)cc1
MFC: > 100 µg/mL

Tell me measured MFC for COCCn1c(-c2ccccc2)c(Cl)nc(Cl)c1=O please.
> 100 µg/mL

Tell me measured MFC for COC(=O)c1ccc(-c2c(Cl)nc(Cl)c(=O)n2-c2ccccc2)cc1 please.
> 100 µg/mL

Tell me measured MFC for COc1nc(Cl)c(CCl)n(-c2ccccc2)c1=O please.
> 100 µg/mL

Tell me measured MFC for COc1ccc(Cn2c(C)c(Cl)nc(Cl)c2=O)cc1 please.
> 100 µg/mL

Tell me measured MFC for COc1ccc(Cn2c(-c3ccc(OC)cc3)c(Cl)nc(Cl)c2=O)cc1 please.
> 100 µg/mL

Tell me measured MFC for Cc1c(Cl)nc(Cl)c(=O)n1Cc1ccccc1 please.
> 100 µg/mL

Tell me measured MFC for O=c1c(Cl)nc(Cl)cn1C1CCCCC1 please.
> 100 µg/mL
